test: Tissue concentrations of Formula I and its metabolites in Göttingen pigs after a single oral or intravenous dose (LC-MS/MS); type: in vivo; conditions: both sexes, Göttingen, pig (minipig), 125 mg/kg; liver and kidney; 24 hpd after oral dosing with Formula I; read-out: Concentration measurable in the liver and kidney
valueType: concentration at 24 h

q: I am curious: what concentration at 24 h value has been reported for CC1(O)[C@@H](O)[C@@H](COP(=O)(O)O)O[C@H]1n1ccc(=O)[nH]c1=S (stereo partly shown) ?
a: ~500 nM

---

assay: Tissue concentrations of Formula I and its metabolites in Göttingen pigs after a single oral or intravenous dose (LC-MS/MS); type: in vivo; conditions: both sexes, Göttingen, pig (minipig); liver; single oral dose of Formula I 125 mg/kg; 24 hpd; read-out: Tissue concentration in Göttingen pig liver (Table 7)
valueType: concentration at 24 h (µM)
Numbers only; they are read as µM.

q: I am curious: what concentration at 24 h value has been reported for C[C@@]1(O)[C@H](O)[C@@H](CO)O[C@H]1n1ccc(=O)[nH]c1=S [Formula VI] ?
a: 4.08

q: I am curious: what concentration at 24 h value has been reported for CC1(O)[C@@H](O)[C@@H](COP(=O)(O)O)O[C@H]1n1ccc(=O)[nH]c1=S (stereo partly drawn) [Formula III] ?
a: 0.537

q: I am curious: what concentration at 24 h value has been reported for C[C@H](NP(=O)(O)OC[C@H]1O[C@@H](n2ccc(=O)[nH]c2=S)C(C)(O)C1O)C(=O)O (stereo in doubt) [Formula II] ?
a: 0.107

---

test: Tissue concentrations of Formula I and its metabolites in Göttingen pigs after a single oral or intravenous dose (LC-MS/MS); format: in vivo; conditions: both sexes, Göttingen, pig (minipig); liver; single intravenous bolus of Formula I 25 mg/kg; 2 hpd; read-out: Tissue concentration, liver
valueType: concentration at 2 h (ng/g)
Numbers only; they are read as ng/g.

q: I am curious: what concentration at 2 h value has been reported for C[C@H](NP(=O)(O)OC[C@H]1O[C@@H](n2ccc(=O)[nH]c2=S)C(C)(O)C1O)C(=O)O (stereo in doubt) ?
a: 694

q: I am curious: what concentration at 2 h value has been reported for CC1(O)[C@@H](O)[C@@H](COP(=O)(O)O)O[C@H]1n1ccc(=O)[nH]c1=S (stereo partly shown) ?
a: 13100

q: I am curious: what concentration at 2 h value has been reported for CC1(O)[C@@H](O)[C@@H](COP(=O)(O)OP(=O)(O)OP(=O)(O)O)O[C@H]1n1ccc(=O)[nH]c1=S (stereo partly shown) ?
a: 2610

q: I am curious: what concentration at 2 h value has been reported for C[C@@]1(O)[C@H](O)[C@@H](CO)O[C@H]1n1ccc(=O)[nH]c1=S ?
a: 7960

---

test: Tissue concentrations of Formula I and its metabolites in Göttingen pigs after a single oral or intravenous dose (LC-MS/MS); type: in vivo; conditions: both sexes, Göttingen, pig (minipig), in vivo, 25 mg/kg, kidney; single intravenous bolus of Formula I 25 mg/kg; 2 hpd; read-out: Tissue concentration, kidney
valueType: concentration at 2 h
Write your answer as a measured quantity: the number, then the unit.

q: I am curious: what concentration at 2 h value has been reported for CC(C)OC(=O)[C@H](C)N[P@](=O)(OC[C@H]1O[C@@H](n2ccc(=O)[nH]c2=S)C(C)(O)C1O)Oc1ccccc1 (stereo partly shown) [Formula I] ?
a: 85 ng/g

Taken from patent US20240390408A1.
